Value source: patent US7741355B2

The following compounds are shown together with reported EC50 values.
tested.system: Trp-p8 (Homo sapiens, UniProt Q7Z2W7, T58I)
Construct: expressed in transfected cells; host or cells: CHO (Chinese Hamster Ovary) cells
Sequence (Q7Z2W7 whole entry T58I): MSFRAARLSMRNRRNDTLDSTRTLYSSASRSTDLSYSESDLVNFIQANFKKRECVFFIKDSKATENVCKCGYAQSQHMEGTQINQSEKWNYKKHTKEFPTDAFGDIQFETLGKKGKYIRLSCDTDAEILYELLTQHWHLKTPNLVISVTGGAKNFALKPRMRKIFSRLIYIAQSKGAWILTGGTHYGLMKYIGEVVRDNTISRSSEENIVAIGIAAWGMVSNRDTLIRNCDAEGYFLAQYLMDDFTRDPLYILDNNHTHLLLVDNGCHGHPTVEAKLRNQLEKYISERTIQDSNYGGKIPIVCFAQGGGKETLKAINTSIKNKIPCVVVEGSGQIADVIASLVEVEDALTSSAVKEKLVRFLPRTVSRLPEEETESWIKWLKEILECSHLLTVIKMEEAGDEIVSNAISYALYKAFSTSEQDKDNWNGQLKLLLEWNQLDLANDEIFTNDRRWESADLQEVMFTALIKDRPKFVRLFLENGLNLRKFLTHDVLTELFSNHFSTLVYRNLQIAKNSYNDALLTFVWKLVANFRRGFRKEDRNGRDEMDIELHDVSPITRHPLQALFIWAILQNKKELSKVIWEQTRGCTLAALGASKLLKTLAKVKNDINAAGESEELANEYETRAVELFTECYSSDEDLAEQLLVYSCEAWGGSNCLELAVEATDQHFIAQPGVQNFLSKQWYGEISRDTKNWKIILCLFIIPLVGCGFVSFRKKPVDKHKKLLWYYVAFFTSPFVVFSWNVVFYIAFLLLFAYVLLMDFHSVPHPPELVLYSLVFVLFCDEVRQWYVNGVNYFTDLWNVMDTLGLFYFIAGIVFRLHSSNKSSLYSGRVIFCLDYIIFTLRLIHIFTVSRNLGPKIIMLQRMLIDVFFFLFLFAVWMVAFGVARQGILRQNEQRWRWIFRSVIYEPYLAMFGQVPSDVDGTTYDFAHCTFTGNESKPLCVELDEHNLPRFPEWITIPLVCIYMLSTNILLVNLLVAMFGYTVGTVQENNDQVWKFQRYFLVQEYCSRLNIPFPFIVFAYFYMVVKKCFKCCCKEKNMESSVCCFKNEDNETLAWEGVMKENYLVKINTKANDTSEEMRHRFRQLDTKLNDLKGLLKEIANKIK
assay.explanation: ATP viability assay with CHO/Trp-p8 cells at 37° C.
Assay type: cell-based
experimental.context: Table 5, Formula I-E; CHO/Trp-p8 cells, 24-26 hours at 37° C., 50% reduction in relative cell viability; read-out: EC50
value.kind: EC50

1) CC(C)[C@@H]1CC[C@@H](C)C[C@H]1C(=O)n1c(=O)n(CCN)c2cc3ccccc3cc21 [Compound 51]    < 20 nM
2) CC(C)[C@@H]1CC[C@@H](C)C[C@H]1C(=O)n1c(=O)n(CCN)c2ccc(C(F)(F)F)cc21 [Compound 61]    21 to 50 nM
3) CC(C)[C@@H]1CC[C@@H](C)C[C@H]1C(=O)n1c(=O)n(CCN)c2cc(C(=O)NC(CO)CO)ccc21 [Compound 74]    51 to 100 nM
4) CC(C)[C@@H]1CC[C@@H](C)C[C@H]1C(=O)n1c(=O)n(CCCCN)c2ccccc21 [Compound 76]    51 to 100 nM
5) CC(C)[C@@H]1CC[C@@H](C)C[C@H]1C(=O)n1c(=O)n(CCN)c2cc(C(=O)N3CCOCC3)ccc21 [Compound 64]    21 to 50 nM
6) COc1ccc2c(c1)n(CCN)c(=O)n2C(=O)[C@@H]1C[C@H](C)CC[C@H]1C(C)C [Compound 36]    < 20 nM
7) CC(C)[C@@H]1CC[C@@H](C)C[C@H]1C(=O)n1c(=O)n(C[C@@H](C)N)c2ccccc21 [Compound 45]    < 20 nM
8) CC(C)[C@@H]1CC[C@@H](C)C[C@H]1C(=O)n1c(=O)n(CCN)c2ccccc21 [Compound 50]    < 20 nM
9) CC(C)[C@@H]1CC[C@@H](C)C[C@H]1C(=O)n1c(=O)n(CCN)c2cc([S+](C)[O-])ccc21 (stereo partly drawn) [Compound 43]    < 20 nM
10) CC(C)[C@@H]1CC[C@@H](C)C[C@H]1C(=O)n1c(=O)n(CCN)c2cc(OCCO)ccc21 [Compound 40]    < 20 nM
11) CCN(CC)C(=O)c1ccc2c(c1)n(CCN)c(=O)n2C(=O)[C@@H]1C[C@H](C)CC[C@H]1C(C)C [Compound 70]    51 to 100 nM
12) CCOc1ccc2c(c1)n(CCN)c(=O)n2C(=O)[C@@H]1C[C@H](C)CC[C@H]1C(C)C (stereo in doubt) [Compound 38]    < 20 nM
13) CC(C)[C@@H]1CC[C@@H](C)C[C@H]1C(=O)n1c(=O)n(CCN)c2cc(C(=O)N(C)c3ccccc3)ccc21 [Compound 68]    51 to 100 nM
14) C#CCOc1ccc2c(c1)n(CCN)c(=O)n2C(=O)[C@@H]1C[C@H](C)CC[C@H]1C(C)C [Compound 46]    < 20 nM
15) CCOC(=O)N1CCN(C(=O)c2ccc3c(c2)n(CCN)c(=O)n3C(=O)[C@@H]2C[C@H](C)CC[C@H]2C(C)C)CC1 [Compound 69]    51 to 100 nM
